System: Bacillus cereus
Assay: Minimum inhibitory concentration against Bacillus cereus MTCC 430
Assay type: functional
attribute measured: MIC (µg/mL)
Field: numeric (µg/mL). Do not append units.

>>> df
                         compound_structure  output_unit  endpoint_value
0  N=C(S)NC[C@H]1CN(c2ccc(N3CCN(C(=O)/C=C/c4ccc5c(c4)OCO5)CC3)c(F)c2)C(=O)O1        µg/mL               1
1  C/C(S)=N/C[C@H]1CN(c2ccc(N3CCN(C(=O)/C=C/c4ccc5c(c4)OCO5)CC3)c(F)c2)C(=O)O1        µg/mL            0.25
2  CC(=O)NC[C@H]1CN(c2ccc(N3CCN(C(=O)/C=C/c4ccc([N+](=O)[O-])cc4)CC3)c(F)c2)C(=O)O1        µg/mL               1
3  CC(=O)NC[C@H]1CN(c2ccc(N3CCN(C(=O)/C=C/c4ccc(OS(C)(=O)=O)cc4)CC3)c(F)c2)C(=O)O1        µg/mL               1

Note: attention shifts to another entry.
MIC for CC(=O)NC[C@H]1CN(c2ccc(N3CCN(C(=O)/C=C/c4ccc(F)c(F)c4)CC3)c(F)c2)C(=O)O1 is 4
